Experiment: In vitro cytotoxic activity against mouse peritoneal macrophages at a concentration 8 uM; Toxic
Assay type: toxicity
Measured Quantity: Cytotoxicity

{"Molecule": "O=C(CCCCN1CCCCC1)N1CCN(c2ccnc3cc(Cl)ccc23)CCN(c2ccnc3cc(Cl)ccc23)CC1", "Assay Result": "Toxic"}
{"Molecule": "O=C(CCCCCCCN1CCCCC1)N1CCN(c2ccnc3cc(Cl)ccc23)CCN(c2ccnc3cc(Cl)ccc23)CC1", "Assay Result": "Toxic"}
{"Molecule": "CC(N)C(=O)N1CCN(c2ccnc3cc(Cl)ccc23)CCN(c2ccnc3cc(Cl)ccc23)CC1 (stereo not given)", "Assay Result": "Toxic"}
{"Molecule": "O=C(CCN1CCCCC1)N1CCN(c2ccnc3cc(Cl)ccc23)CCN(c2ccnc3cc(Cl)ccc23)CC1", "Assay Result": "Toxic"}
{"Molecule": "O=C(CCCCCCCCCCCN1CCCCC1)N1CCN(c2ccnc3cc(Cl)ccc23)CCN(c2ccnc3cc(Cl)ccc23)CC1", "Assay Result": "Toxic"}

---

Tested on: Plasmodium falciparum
Assay: In vitro growth inhibition of Plasmodium falciparum FcB1R
Format: functional, organism-based

{"Compound Smiles": "O=C(CCCCCCCCCCCN1CCCCC1)N1CCN(c2ccnc3cc(Cl)ccc23)CCN(c2ccnc3cc(Cl)ccc23)CC1", "Target Or System": "Plasmodium falciparum", "Relation Qualifier": "=", "IC50, µM": 0.109}
{"Compound Smiles": "O=C(c1ccc(C(=O)N2CCN(c3ccnc4cc(Cl)ccc34)CCN(c3ccnc4cc(Cl)ccc34)CC2)cc1)N1CCN(c2ccnc3cc(Cl)ccc23)CCN(c2ccnc3cc(Cl)ccc23)CC1", "Target Or System": "Plasmodium falciparum", "Relation Qualifier": "=", "IC50, µM": 0.266}
{"Compound Smiles": "NCCN(CCNc1ccnc2cc(Cl)ccc12)CCNc1ccnc2cc(Cl)ccc12", "Target Or System": "Plasmodium falciparum", "Relation Qualifier": "=", "IC50, µM": 0.606}
{"Compound Smiles": "CC(C)(C)OC(=O)NCCC(=O)N1CCN(c2ccnc3cc(Cl)ccc23)CCN(c2ccnc3cc(Cl)ccc23)CC1", "Target Or System": "Plasmodium falciparum", "Relation Qualifier": ">", "IC50, µM": 1}
{"Compound Smiles": "Clc1ccc2c(NCCCCNCCCNc3ccnc4cc(Cl)ccc34)ccnc2c1", "Target Or System": "Plasmodium falciparum", "Relation Qualifier": "=", "IC50, µM": 0.057}
{"Compound Smiles": "O=C(CCN1CCCCC1)N1CCN(c2ccnc3cc(Cl)ccc23)CCN(c2ccnc3cc(Cl)ccc23)CC1", "Target Or System": "Plasmodium falciparum", "Relation Qualifier": "=", "IC50, µM": 0.0386}
{"Compound Smiles": "Clc1ccc2c(N3CCCNCCN(c4ccnc5cc(Cl)ccc45)CCCNCC3)ccnc2c1", "Target Or System": "Plasmodium falciparum", "Relation Qualifier": ">", "IC50, µM": 1}
{"Compound Smiles": "O=C(CCCC(=O)N1CCN(c2ccnc3cc(Cl)ccc23)CCN(c2ccnc3cc(Cl)ccc23)CC1)N1CCNCCN(c2ccnc3cc(Cl)ccc23)CC1", "Target Or System": "Plasmodium falciparum", "Relation Qualifier": "=", "IC50, µM": 0.275}
{"Compound Smiles": "O=C(CCCOCc1ccccc1)N1CCN(c2ccnc3cc(Cl)ccc23)CCN(c2ccnc3cc(Cl)ccc23)CC1", "Target Or System": "Plasmodium falciparum", "Relation Qualifier": "=", "IC50, µM": 1}
{"Compound Smiles": "O=C(CCCO)N1CCN(c2ccnc3cc(Cl)ccc23)CCN(c2ccnc3cc(Cl)ccc23)CC1", "Target Or System": "Plasmodium falciparum", "Relation Qualifier": "=", "IC50, µM": 0.93}
{"Compound Smiles": "O=C(CCCCCCCN1CCCCC1)N1CCN(c2ccnc3cc(Cl)ccc23)CCN(c2ccnc3cc(Cl)ccc23)CC1", "Target Or System": "Plasmodium falciparum", "Relation Qualifier": "=", "IC50, µM": 0.0811}
{"Compound Smiles": "N=C(N)NCCC(=O)N1CCN(c2ccnc3cc(Cl)ccc23)CCN(c2ccnc3cc(Cl)ccc23)CC1", "Target Or System": "Plasmodium falciparum", "Relation Qualifier": ">", "IC50, µM": 1}
{"Compound Smiles": "NC(=O)CCC(=O)N1CCN(c2ccnc3cc(Cl)ccc23)CCN(c2ccnc3cc(Cl)ccc23)CC1", "Target Or System": "Plasmodium falciparum", "Relation Qualifier": "=", "IC50, µM": 0.98}
